- Test system: LOX IMVI melanoma
- ASSAY_REMARKS: NCI-60 one-dose screen, 48 h (100 = growth as untreated, 0 = no growth, -100 = all killed)
- PROTOCOL_CONDITIONS: 10 µM unless noted
- Experimental: Growth inhibition of the LOX IMVI human tumor cell line is measured as a screen for anti-cancer activity. Cells are grown in 96 well plates and exposed to the test compound for 48 hours. Compounds are tested at a single concentration, which is 10^-5 M for most compounds. The reported endpoint is percent growth (GI% or GIPRCNT), where numbers from 0 - 100% represent growth inhibition, and numbers from -100% - 0 represent cell death. For example, a value of 40 represents 60% growth inhibition. […]
Compounds without any hit were thinned out: in the full panel of roughly 83,000, 20% have a hit. The source made the active and inactive calls. How the source made its calls: active means growth percent below 10; inactive means the rest.
growth values, listed per item

COC(=O)[C@@H](C[C@H](Cc1ccccc1)NC(=O)c1csc([C@@H](C[C@H](C(C)C)N(C)C(=O)[C@@H](NC(=O)[C@H]2CCCCN2C)C(C)C)OC(C)=O)n1)NC(=O)OCc1ccccc1: 14.7% [9.5 µM] (inactive)
CCOP1(=O)CC(C)=C(Cl)C(P(=O)(OCC)OCC)C1 (stereo not drawn): 92.6% (inactive)
O=C(O)c1c(Cl)n(Cc2ccc(O)cc2)c2ccc(O)cc12: 98.8% (inactive)

q: I would be grateful if you could share the reported growth for CCCCN(CCCC)P(=O)(Oc1ccccc1)Oc1ccccc1 .
a: 67.7% (inactive)

q: Would you mind doing [Cl][Hg][c]1cc(Br)cc(Br)c1 as well?
a: 9.91% (active)

q: Ok, now CC[C@H](C)[C@H](NC(=O)C12CC(NC(C)=O)(C1)C2)C(=O)N(C)[C@H](C[C@@H](OC(C)=O)c1nc(C(=O)N[C@@H](Cc2ccccc2)C[C@H](C)C(=O)OC)cs1)C(C)C
a: 16.5% (inactive)

###

- Test system: HS 578T breast
- ASSAY_REMARKS: NCI-60 one-dose screen, 48 h (100 = growth as untreated, 0 = no growth, -100 = all killed)
- PROTOCOL_CONDITIONS: 10 µM unless noted
This is part of a sample that, as a whole, favours compounds with a hit. Of some 83,000 tested, about 20% had one in any assay.
growth less than 40% is 1; growth greater than or equal to 40% is 0.

Would you please look over these solved cases?
CC1(C)N=C(N)N=C(N)N1c1ccc(CCCCc2ccc(Cl)c(S(=O)(=O)F)c2)c(Cl)c1: 0
COC(=O)[C@@H](C)C[C@H](Cc1ccccc1)NC(=O)c1csc([C@@H](C[C@H](C(C)C)N(C)C(=O)[C@@H](NC(=O)[C@H]2CCCCN2C)C2CC2)OC(C)=O)n1: 1
N#CC1(c2ccccc2)CCN(Cc2ccccc2)CC1: 0
COC(=O)[C@H](Cc1c[nH]c2ccccc12)NC(=O)[C@@H](OC)[C@@H]1Cc2cc3cc(OC4CC(OC5CC(O)C(O)C(C)O5)C(O)C(C)O4)c(C)c(O)c3c(O)c2C(=O)[C@H]1OC1CC(OC2CC(OC3CC(C)(O)C(O)C(C)O3)C(O)C(C)O2)C(O)C(C)O1 (some centres not stated): 1
O=C(CC1(O)C(=O)N(Cc2ccccc2)c2ccc(Cl)cc21)c1ccc(C(=O)NCC2CCC3(CC2)OOC2(CCCCC2)OO3)cc1 (configuration not stated): 1

# ---- query compound ----
q: growth under 40%? Item: O=C1OCC2=C1C(c1ccccc1)c1cc3c(cc1N2)OCO3 (configuration not stated)
a: 0
